target of assay: T1, soluble human FcRn (shFcRn) (human, UniProt P55899 24-297; P61769 21-119)
T1 construct: Biotinylated for the ELISA, amine-coupled to a CM5 chip for SPR; also called biotinylated shFcRn
T1 sequence (P55899 24-297 limits assumed, chain 1 of 2): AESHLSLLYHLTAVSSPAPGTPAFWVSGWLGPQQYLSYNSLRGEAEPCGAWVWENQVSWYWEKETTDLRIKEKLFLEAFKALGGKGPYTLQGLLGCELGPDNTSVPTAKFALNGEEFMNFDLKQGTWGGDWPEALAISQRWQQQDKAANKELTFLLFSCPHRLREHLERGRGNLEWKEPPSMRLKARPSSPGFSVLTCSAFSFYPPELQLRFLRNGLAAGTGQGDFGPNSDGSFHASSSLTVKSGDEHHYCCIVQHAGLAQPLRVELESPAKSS
T1 sequence (P61769 21-119 limits assumed, chain 2 of 2): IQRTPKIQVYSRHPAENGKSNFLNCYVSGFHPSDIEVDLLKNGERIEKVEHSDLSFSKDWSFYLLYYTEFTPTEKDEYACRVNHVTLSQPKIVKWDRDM
assay comment: SPR pH 7.4
Bridge positions count the residues as written; N and C are the ends. Square brackets hold non-standard residues; d marks the D form. Ends that are not written are not given here. Pen = CC(C)(S)[C@H](N)C(=O)O
quantity kind: Kd

* QRF[Pen]TGHFG[dR]LYPCNGP-NH2 (disulfide 4-14; N-terminus assumed; SMILES CC(C)C[C@@H]1NC(=O)[C@@H](CCCNC(=N)N)NC(=O)CNC(=O)[C@H](Cc2ccccc2)NC(=O)[C@H](Cc2c[nH]cn2)NC(=O)CNC(=O)[C@H]([C@@H](C)O)NC(=O)[C@@H](NC(=O)[C@H](Cc2ccccc2)NC(=O)[C@H](CCCNC(=N)N)NC(=O)[C@@H](N)CCC(N)=O)C(C)(C)SSC[C@@H](C(=O)N[C@@H](CC(N)=O)C(=O)NCC(=O)N2CCC[C@H]2C(N)=O)NC(=O)[C@@H]2CCCN2C(=O)[C@H](Cc2ccc(O)cc2)NC1=O) [Peptide No. 41] | 8.8 µM
